Kindly state INHIBITION for each of the entries shown.
System: Plasmodium berghei
Assay: Screen against P. berghei liver stage (PbLuc), transformed with Luciferase, at 10uM
Type: functional, HepG2
Conditions: tested at 10 uM
Hit rate of the full screen: of about 69,000 compounds, about 8,600 (12%) showed an effect of 50% or more. Only a selection was taken, and strong results are over-represented in it overall.
One number for each entry, in %.

Examples with answers:
> print(dat)
                              record.smiles  experimental.readout  experimental.result
1  Cn1cc(C(=O)NCc2cncc3c2CCN(S(C)(=O)=O)C3)cn1            INHIBITION                 38.5
2  Cn1c(=O)c2cc(C(=O)NCc3ccncc3)ccc2n(C)c1=O            INHIBITION                -4.82
3    CN(Cc1cccnc1)Cc1cncc2c1CCN(c1ccccn1)C2            INHIBITION                 51.2
4         O=c1c2sccc2ncn1Cc1cc(C2CC2)[nH]n1            INHIBITION                 37.6
5  Cc1ccc(N2CCc3c(CN(C)Cc4ccco4)cncc3C2)nn1            INHIBITION                -11.2

Please turn your attention to the following entry.
Entry "Cc1occc1C(=O)N1CCc2c(CNc3ncccn3)cncc2C1" ; INHIBITION = 4.27
